- TEST_TARGET: T1, human insulin (human, UniProt P01308 25-54; P01308 90-110, limits assumed)
- T1 construct: Coated antigen of the polyreactivity ('PK-risk indicator') ELISA
- T1 sequence (P01308 25-54 limits assumed, chain 1 of 2): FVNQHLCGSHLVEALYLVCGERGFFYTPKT
- T1 sequence (P01308 90-110 limits assumed, chain 2 of 2): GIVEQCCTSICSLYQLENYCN
- TEST_METHOD_NOTES: ELISA on human insulin (development risk, polyreactivity), binding score
MEASURE_NAME: binding result

MH23 (antibody, human IgG4, V domains shown, Deimmunized MH5 derivative, human IgG4(S228P)/Ckappa IgG) VH: QVQLVQSGAEVKKPGSSVKVSCKASGYTFSSHYMIWVRQAPGQGLEWMGDINPYNGGANYAQKFQGRVTITADESTSTAYMELSSLRSEDTAVYYCAREGPYFSNLYVMDYWGQGTLVTVSS VL: EIVLTQSPATLSLSPGERATLSCRASQSVSYEGENYLNWYQQKPGQAPRAAIYAASNRATGIPARFSGSGSGTDFTLTISSPEPEDFAVYYCQLSNEDLLTFGGGTKVEIK
no binding
MH12 (antibody, human IgG4, V domains shown, Deimmunized MH5 derivative, human IgG4(S228P)/Ckappa IgG; also called mAb-4) VH: QVQLVQSGAEVKKPGSSVKVSCKASGYTFSSNYMIWVRQAPGQGLEWMGDINPYNGGANYAQKFQGRVTITADESTSTAYMELSSLRSEDTAVYYCAREGPYFSNLYVMDYWGQGTLVTVSS VL: EIVLTQSPATLSLSPGERATLSCRASQSVSYEGENYLNWYQQKPGQAPRSLIYAASDRATGIPARFSGSGSGTDFTLTISSPEPEDFAVYYCQLSNEDLLTFGGGTKVEIK
no binding
MH13 (antibody, human IgG4, V domains shown, Deimmunized MH5 derivative, human IgG4(S228P)/Ckappa IgG) VH: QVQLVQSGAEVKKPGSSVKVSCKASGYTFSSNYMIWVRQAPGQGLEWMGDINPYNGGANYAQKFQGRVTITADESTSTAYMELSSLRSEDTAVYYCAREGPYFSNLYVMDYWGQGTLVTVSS VL: EIVLTQSPATLSLSPGERATLSCRASQSVSYEGENYLNWYQQKPGQAPRLLIYAASNRATGIPARFSGSGSGTDFTLTISSPEPEDFAVYYCQLSNEDLLTFGGGTKVEIK
no binding
